These entries and their values trace back to ChEMBL document CHEMBL3734652.

test system: Mycobacterium tuberculosis; assay: Antimicrobial activity against Mycobacterium tuberculosis H37RvMA under GAST/Fe medium assessed as growth inhibition after 14 days by alamar blue assay; format: functional; details: 336 h
Record form. Attribute: MIC90. Fill in for each entry.

# Line Notation, Measured
data = [
    ("CO[C@H]1/C=C/O[C@@]2(C)Oc3c(C)c(O)c4c(O)c(c(/C=N/N5CCN(C)CC5)c(O)c4c3C2=O)NC(=O)/C(C)=C\\C=C\\[C@H](C)[C@H](O)[C@@H](C)[C@@H](O)[C@@H](C)[C@H](OC(C)=O)[C@@H]1C", "0.009 µM"),
    ("Cc1noc(-c2nc(C)c3c(c2N)C(=O)N(Cc2ccncc2)C3=O)n1", "20 µM"),
    ("CCOC(=O)c1nc(C)c2c(c1N)C(=O)N(Cc1ccccc1)C2=O", "< 0.156 µM"),
    ("CNC(=O)c1nc(C)c2c(c1N)C(=O)N(Cc1ccccc1)C2=O", "> 160 µM"),
]

Let us examine a further case.
If you can, please state the reported MIC90 value of Cc1noc(-c2nc(C)c3c(c2N)C(=O)N(Cc2ccc(Cl)cn2)C3=O)n1 . 2.5 µM
